The compounds listed here are annotated with their Phytotoxicity % N.F..
Tested on: wheat plants
ASSAY_TEXT: Phytotoxicity (percentage of leaf necrosis) on wheat plants, Erysiphe graminis test
Assay type: in vivo
COND: 30 ppm, 0 = completely healthy plant, 100 = completely necrotized plant
Report the figure in % without appending any unit label.

[
  {
    "COMPOUND": "CCN(C)C=Nc1cc(C)c(Sc2cccc(OCC(F)(F)F)c2)cc1C [Compound 15]",
    "STUDY_SYSTEM": "wheat plants",
    "NUMERIC_VALUE": 0
  },
  {
    "COMPOUND": "Cc1cc(Oc2cccc(OC(F)(F)F)c2)c(C)cc1N=CN(C)C [CR-4]",
    "STUDY_SYSTEM": "wheat plants",
    "NUMERIC_VALUE": 15
  },
  {
    "COMPOUND": "Cc1cc(Oc2cccc(OCC(F)(F)F)c2)c(C)cc1N=CN(C)C [CR-5]",
    "STUDY_SYSTEM": "wheat plants",
    "NUMERIC_VALUE": 20
  },
  {
    "COMPOUND": "Cc1cc(Oc2cccc(C(F)(F)F)c2)c(C)cc1N=CN(C)C [CR-1]",
    "STUDY_SYSTEM": "wheat plants",
    "NUMERIC_VALUE": 15
  },
  {
    "COMPOUND": "CCN(C)C=Nc1cc(C)c(Oc2cccc(C(F)(F)F)c2)cc1C [CR-3]",
    "STUDY_SYSTEM": "wheat plants",
    "NUMERIC_VALUE": 20
  },
  {
    "COMPOUND": "CCN(C)C=Nc1cc(C)c(Sc2cccc(OCC(F)(F)C(F)F)c2)cc1C [Compound 19]",
    "STUDY_SYSTEM": "wheat plants",
    "NUMERIC_VALUE": 0
  }
]

Input Cc1cc(Sc2cccc(C(F)(F)F)c2)c(C)cc1N=CN(C)C [CR-2] . Output Phytotoxicity % N.F.: 0

Input CCN(C)C=Nc1cc(C)c(Sc2cccc(OC(F)F)c2)cc1C [Compound 1] . Output Phytotoxicity % N.F.: 0

Input CCN(C)C=Nc1cc(C)c(Sc2cccc(OCC(F)(F)C(F)(F)F)c2)cc1C [Compound 23] . Output Phytotoxicity % N.F.: 0

Input CCN(C)C=Nc1cc(C)c(Sc2cccc(OC(F)(F)C(F)F)c2)cc1C [Compound 2] . Output Phytotoxicity % N.F.: 0

Where do the numbers come from? From patent US9040457B2.
